Experiment: Antiproliferative activity against NPM-ALK positive human SUPM2 cells assessed as inhibition of cell growth incubated for 72 hrs by MTS assay
Assay type: functional, cell-based
Settings: SUP-M2, 72 h
parameter: IC50 (nM)

INSERT INTO assay_data (compound_structure_string, parameter, experimental_result) VALUES
  ('CN1CCN(c2ccc(-c3ccc4[nH]c5nccc(-c6ccc(Cc7ccccc7)cc6)c5c4c3)cc2)CC1', 'IC50', 1100);

* * *

Test system: KARPAS-299
Assay: Antiproliferative activity against NPM-ALK positive human KARPAS-299 cells assessed as inhibition of cell growth incubated for 72 hrs by MTS assay
Type: functional, cell-based
Conditions: KARPAS-299, 72 h
parameter: IC50

INSERT INTO measurements (compound_structure_string, system_under_test, parameter, experimental_result) VALUES
  ('CN1CCN(c2ccc(-c3ccc4[nH]c5nccc(-c6ccc(Cc7ccccc7)cc6)c5c4c3)cc2)CC1', 'KARPAS-299', 'IC50', '700 nM');
